Origin of values: patent US6660755B2

The following compounds are shown together with reported pKd values.
TESTED TARGET: RARβ (Homo sapiens)
Sequence (P10826 1-455): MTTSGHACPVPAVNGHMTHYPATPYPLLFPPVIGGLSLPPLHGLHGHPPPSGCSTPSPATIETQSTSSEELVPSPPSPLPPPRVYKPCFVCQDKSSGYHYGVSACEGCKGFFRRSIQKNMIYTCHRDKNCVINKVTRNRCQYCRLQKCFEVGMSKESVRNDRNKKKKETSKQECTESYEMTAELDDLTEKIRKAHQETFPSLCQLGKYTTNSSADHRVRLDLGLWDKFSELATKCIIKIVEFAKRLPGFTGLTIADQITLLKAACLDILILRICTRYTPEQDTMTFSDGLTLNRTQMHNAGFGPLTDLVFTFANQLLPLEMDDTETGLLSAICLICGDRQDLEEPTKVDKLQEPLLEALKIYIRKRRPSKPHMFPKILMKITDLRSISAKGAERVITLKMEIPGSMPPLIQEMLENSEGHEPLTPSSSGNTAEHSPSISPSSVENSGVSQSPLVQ
pKd: −log10 of the molar value.
MEASURED QUANTITY: pKd

1. CC(C)(C)c1ccc(C#Cc2ccc(C(=O)O)cn2)cc1Oc1ccc(C(F)(F)F)cc1 [Compound 6]: 6.95
2. CC(C)(C)c1ccc(C(=O)Nc2ccc(C(=O)O)c(F)c2)cc1Oc1ccc(C(F)(F)F)cc1 [Compound 13]: 5.34
3. CC(C)(C)c1ccc(C#Cc2ccc(C(=O)O)c(F)c2)cc1Oc1ccc(C(F)(F)F)cc1 [Compound 4]: 7.84
4. Cc1ccc(Oc2cc(C#Cc3ccc(C(=O)O)cc3)ccc2C(C)(C)C)cc1 [Compound 30]: 7.89
5. CC(C)(C)c1ccc(/C=C/c2ccc(C(=O)O)cc2)cc1Oc1ccc(C(F)(F)F)cc1 [Compound 22]: 7.44
6. COC(=O)c1ccc(Oc2cc(C#Cc3ccc(C(=O)O)c(F)c3)ccc2C(C)(C)C)cc1 [Compound 10]: 7.85
7. CC(C)(C)c1ccc(C#Cc2ccc(C(=O)O)c(F)c2)cc1Oc1ccc([N+](=O)[O-])cc1 [Compound 11]: 7.47

----------
pKd: −log10 of the molar value.
This document collects pKd values reported for RARγ (Homo sapiens).
MEASURED QUANTITY: pKd

1. CC(C)(C)c1ccc(C(=O)Nc2ccc(C(=O)O)c(F)c2)cc1Oc1ccc(C(F)(F)F)cc1: 5.24
2. CC(C)(C)c1ccc(C#Cc2ccc(C(=O)O)c(F)c2)cc1Oc1ccc(I)cc1: 7.08
3. CCc1ccc(Oc2cc(C#Cc3ccc(C(=O)O)c(F)c3)ccc2C(C)(C)C)cc1: 7.65
